Molecular target: mAChR M1 (UniProt P11229)
Sequence (P11229 1-460): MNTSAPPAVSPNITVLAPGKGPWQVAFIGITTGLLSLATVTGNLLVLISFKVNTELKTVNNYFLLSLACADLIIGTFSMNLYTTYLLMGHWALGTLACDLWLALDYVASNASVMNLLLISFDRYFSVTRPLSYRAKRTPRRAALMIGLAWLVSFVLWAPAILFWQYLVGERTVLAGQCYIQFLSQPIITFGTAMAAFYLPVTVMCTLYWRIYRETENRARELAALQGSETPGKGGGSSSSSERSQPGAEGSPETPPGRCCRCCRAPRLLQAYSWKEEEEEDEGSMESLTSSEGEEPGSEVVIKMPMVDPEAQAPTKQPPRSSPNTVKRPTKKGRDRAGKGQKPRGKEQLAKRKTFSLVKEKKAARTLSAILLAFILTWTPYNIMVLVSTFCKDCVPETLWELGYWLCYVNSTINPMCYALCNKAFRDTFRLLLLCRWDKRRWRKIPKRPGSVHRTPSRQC
Assay: mAChR M1 cell-based functional assay (calcium mobilization, antagonist mode)
Conditions: concentration of antagonist decreasing calcium flux by 50%; EC80 acetylcholine response; CHO-K1 cells expressing mAChR M1; read-out: Potency (IC50)
Method: Chinese hamster ovary (CHO-K1) cells stably expressing rat (r)M1 were purchased from the American Type Culture Collection and cultured according to their indicated protocol. […] Calcium flux was measured using the Functional Drug Screening System (FDSS) 6000 (Hamamatsu Corporation, Tokyo, Japan) as an increase in the fluorescent static ratio. […] Agonist activity was analyzed as a concentration-dependent increase in calcium mobilization upon compound addition. […]
Property Name: IC50

Cn1cc(S(=O)(=O)N2CC(C(=O)N3CC4CN(c5ccncc5)CC4C3)C2)cn1 (stereo not drawn) [B83] :: > 10000 nM

Exercise: Please give measured IC50 of the following entry: O=C(NC1CCN(c2ccccc2)C1)C1CN(S(=O)(=O)c2cccc3cnccc23)C1 (stereo not drawn) [B82]
Solution: > 10000 nM

Exercise: Specify measured IC50 for O=C(C1CN(S(=O)(=O)c2cccnc2Cl)C1)N1CC2CN(c3ccncc3)CC2C1 (stereo not drawn) [B54] .
Solution: 930 nM

Exercise: Determine from records and report IC50 for O=C(C1CN(S(=O)(=O)c2cccc3c(Cl)nccc23)C1)N1CCN(c2ccncc2)CC1 [B17]
Solution: 640 nM

Exercise: Find the measured IC50 of O=C(C1CN(S(=O)(=O)c2ccc3c(c2)CCO3)C1)N1CCN(c2ccncc2)CC1 [B5] and report it.
Solution: 95 nM

Exercise: Assign IC50 to the following record: Cc1nc(C(F)(F)F)c(S(=O)(=O)N2CC(C(=O)N3CCN(c4ccncc4)CC3)C2)s1 [B27]
Solution: 2000 nM

Exercise: Answer with the recorded IC50 for the compound listed here: O=C(C1CN(S(=O)(=O)C2CCOCC2)C1)N1CCN(c2ccncc2)CC1 [B81]
Solution: > 10000 nM

Exercise: Recall and state the measured IC50 for O=C(C1CN(S(=O)(=O)c2cccc3c2OCCO3)C1)N1CCN(c2ccncc2)CC1 [B45] .
Solution: > 10000 nM

Exercise: Quick one: give measured IC50 for CN1CCN(C(=O)C2CN(S(=O)(=O)c3cccc4cnccc34)C2)CC1 [B80]
Solution: > 10000 nM

Exercise: Item CCC(C)S(=O)(=O)N1CC(C(=O)N2CC3CN(c4ccncc4)CC3C2)C1 (stereo not drawn) [B85] : provide IC50
Solution: > 10000 nM

Exercise: Respond only with IC50 recorded for O=C(C1CN(S(=O)(=O)c2ccc(N3CCOCC3)nc2)C1)N1CCN(c2ccncc2)CC1 [B74]
Solution: > 10000 nM

Exercise: For the compound O=C(C1CN(S(=O)(=O)C2CCCCC2)C1)N1CC2CN(c3ccncc3)CC2C1 (stereo not drawn) [B86] , give its measured IC50 value.
Solution: > 10000 nM

Exercise: State its IC50: Cc1noc(C)c1S(=O)(=O)N1CC(C(=O)N2CCN(c3ccncc3)CC2)C1 [B25]
Solution: 1900 nM

Exercise: Look up and state reported IC50 for CN1C(=O)Cc2cc(S(=O)(=O)N3CC(C(=O)N4CCN(c5ccncc5)CC4)C3)ccc21 [B49]
Solution: > 10000 nM

Exercise: Let me know recorded IC50 for O=C(C1CN(S(=O)(=O)c2cccc3cnccc23)C1)N1CCN(c2ccnc(Cl)c2)CC1 [B2] , thanks.
Solution: 48 nM

Exercise: For the compound O=C(C1CN(S(=O)(=O)c2cccc(OC(F)(F)F)c2)C1)N1CCN(c2ccncc2)CC1 [B69] , give its reported IC50.
Solution: > 10000 nM

Exercise: Name the recorded IC50 of the compound listed here: Cc1ccnc(S(=O)(=O)N2CC(C(=O)N3CCN(c4ccncc4)CC3)C2)c1 [B40]
Solution: > 10000 nM

Exercise: Give a short answer stating reported IC50 for O=C(C1CN(S(=O)(=O)c2cccnc2)C1)N1CCN(c2ccncc2)CC1 [B10] .
Solution: 350 nM

* * *

Molecular target: mAChR M1 (UniProt P11229)
Sequence (P11229 1-460): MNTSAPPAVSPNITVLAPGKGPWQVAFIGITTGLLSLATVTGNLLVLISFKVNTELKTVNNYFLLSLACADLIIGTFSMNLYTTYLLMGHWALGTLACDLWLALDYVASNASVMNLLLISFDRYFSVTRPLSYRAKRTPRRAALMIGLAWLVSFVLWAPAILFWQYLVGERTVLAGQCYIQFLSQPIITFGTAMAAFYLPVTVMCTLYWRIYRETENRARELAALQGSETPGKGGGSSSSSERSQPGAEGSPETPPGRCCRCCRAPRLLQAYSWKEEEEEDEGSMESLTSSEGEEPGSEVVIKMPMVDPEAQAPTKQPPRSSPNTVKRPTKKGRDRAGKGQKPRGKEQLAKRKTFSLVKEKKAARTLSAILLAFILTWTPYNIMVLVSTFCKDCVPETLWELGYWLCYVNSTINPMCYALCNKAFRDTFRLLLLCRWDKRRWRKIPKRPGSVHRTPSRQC
Assay: mAChR M1 cell-based functional assay (calcium mobilization, antagonist mode)
Details: concentration of antagonist decreasing calcium flux by 50%; EC80 acetylcholine response; CHO-K1 cells expressing mAChR M1; read-out: Potency (IC50)
pIC50: −log10 of the molar value.
Property Name: pIC50

Take a look at these entries with their results.
Cc1cnccc1N1CCN(C(=O)C2CN(S(=O)(=O)c3cccc4cnccc34)C2)CC1 [B13] :: 6.41
CC(C)S(=O)(=O)N1CC(C(=O)N2CC3CN(c4ccncc4)CC3C2)C1 (stereo not drawn) [B84] :: < 5.00
CN1CCOc2cc(S(=O)(=O)N3CC(C(=O)N4CCN(c5ccncc5)CC4)C3)cnc21 [B73] :: < 5.00

Exercise: For mAChR M1 (UniProt P11229), give the measured pIC50 of the entry O=C(C1CN(S(=O)(=O)c2cccc3nonc23)C1)N1CCC(O)(c2ccncc2)CC1 [B61]
Solution: < 5.00

Exercise: Using mAChR M1 (UniProt P11229) as the test system, report measured pIC50 of Cc1cc(N2CCN(C(=O)C3CN(S(=O)(=O)c4cccc5cnccc45)C3)CC2)cc(C)n1 [B14] .
Solution: 6.34

Exercise: Provide pIC50, tested on mAChR M1 (UniProt P11229), for O=C(C1CN(S(=O)(=O)c2cccc3cnccc23)C1)N1CC2CN(c3ccccn3)CC2C1 (stereo not drawn) [B4] .
Solution: 7.06

Exercise: Using mAChR M1 (UniProt P11229) as the test system, report measured pIC50 of O=C(C1CN(S(=O)(=O)c2cccc3nonc23)C1)N1CCN(c2ccccn2)CC1 [B31] .
Solution: < 5.00

Exercise: Write pIC50 of Cn1ccc2cc(S(=O)(=O)N3CC(C(=O)N4CCN(c5ccncc5)CC4)C3)ccc21 [B50] ; system used: mAChR M1 (UniProt P11229)
Solution: < 5.00

Exercise: GET pIC50 where system = mAChR M1 (UniProt P11229) and item = O=C(C1CN(S(=O)(=O)c2cccc(F)c2)C1)N1CC2CN(c3ccncc3)CC2C1 (stereo not drawn) [B59]
Solution: 5.68

Exercise: Tell me its pIC50 on mAChR M1 (UniProt P11229): Cn1cnc(S(=O)(=O)N2CC(C(=O)N3CCN(c4ccncc4)CC3)C2)c1 [B66]
Solution: < 5.00

Exercise: Tell me its pIC50 on mAChR M1 (UniProt P11229): Cn1nccc1-c1cccc(S(=O)(=O)N2CC(C(=O)N3CCN(c4ccncc4)CC3)C2)c1 [B65]
Solution: < 5.00

Exercise: # return pIC50 of O=C(C1CN(S(=O)(=O)c2ccc3[nH]ncc3c2)C1)N1CCN(c2ccncc2)CC1 [B76] (system: mAChR M1 (UniProt P11229))
Solution: < 5.00

Exercise: Fill in pIC50 for O=C(C1CN(S(=O)(=O)c2ccc3[nH]c(=O)sc3c2)C1)N1CCN(c2ccncc2)CC1 [B70] tested with mAChR M1 (UniProt P11229).
Solution: < 5.00

Exercise: Give pIC50 for O=C(C1CN(S(=O)(=O)c2ccncc2)C1)N1CCN(c2ccncc2)CC1 [B67] tested on mAChR M1 (UniProt P11229).
Solution: < 5.00

Exercise: // fetch pIC50; item: O=C(C1CN(S(=O)(=O)c2cccc3cnccc23)C1)N1CCC(c2cccnc2)C1 (stereo not drawn) [B48] ; system: mAChR M1 (UniProt P11229)
Solution: < 5.00

Exercise: Name the recorded pIC50 of O=C(C1CN(S(=O)(=O)c2ccc3occc3c2)C1)N1CCN(c2ccncc2)CC1 [B24] , assay system mAChR M1 (UniProt P11229).
Solution: 5.82

Exercise: Please look at O=C(C1CN(S(=O)(=O)c2ccc3cn[nH]c3c2)C1)N1CCN(c2ccncc2)CC1 [B37] and tell me its recorded pIC50 on mAChR M1 (UniProt P11229).
Solution: < 5.00

Exercise: Using mAChR M1 (UniProt P11229) as the test system, report measured pIC50 of O=C(C1CN(S(=O)(=O)c2ccc3c(c2)OCO3)C1)N1CC2CN(c3ccncc3)CC2C1 (stereo not drawn) [B57] .
Solution: 6.02

Values compiled from patent US8697888B2.
